Target: SARS-CoV-2 3CLpro (Severe acute respiratory syndrome coronavirus 2, UniProt P0DTD1)
Construct: Each well contained 25 nM of SARS-CoV-2 3CL^Pro and eCFP-Venus biosensor (500 nM)
Assay: biochemical
Settings: 20 µM; with DTT (4 mM)
ENDPOINT LABEL: % inhibition @ 20 µM, DTT (%)
// note: answer is a bare numeric in %

Known % inhibition @ 20 µM, DTT results, listed for orientation:
[
  {
    "SMILES": "O=C(N[C@H](Cc1c[nH]c2ccccc12)C(=O)O)C(=O)c1c[nH]c2cc(Br)ccc12",
    "TEST VALUE": 2.0
  },
  {
    "SMILES": "O=C(N[C@@H](Cc1ccc(O)cc1)C(=O)O)C(=O)c1c[nH]c2ccc(Br)cc12",
    "TEST VALUE": 1.9
  },
  {
    "SMILES": "N=C(N)NCCC[C@@H](NC(=O)C(=O)c1c[nH]c2cc(Br)ccc12)C(=O)O",
    "TEST VALUE": 0.8
  }
]

Documented % inhibition @ 20 µM, DTT of N=C(N)NCCC[C@H](NC(=O)C(=O)c1c[nH]c2cc(Br)ccc12)C(=O)O : 2.4

Documented % inhibition @ 20 µM, DTT of C[C@H](NC(=O)C(=O)c1c[nH]c2cc(Br)ccc12)C(=O)O : 1.3

Documented % inhibition @ 20 µM, DTT of O=C(N[C@@H](Cc1c[nH]c2ccccc12)C(=O)O)C(=O)c1c[nH]c2ccc(Br)cc12 : 3.7

Documented % inhibition @ 20 µM, DTT of O=C(N[C@@H](Cc1ccc(O)cc1)C(=O)O)C(=O)c1c[nH]c2cc(Br)ccc12 : 6.9

Documented % inhibition @ 20 µM, DTT of O=C(N[C@H](Cc1ccc(O)cc1)C(=O)O)C(=O)c1c[nH]c2cc(Br)ccc12 : 4.9
